- Tested on: PC-3
- Test Protocol: NCI tumour cell line growth inhibition, 48 h
Calls of active or inactive are those of the source. Cut-off read from the data, not from the text of the source: active = GI50 up to about 1.1 µM and inactive = higher.
Outcome codes: active, inactive

* C#CCOCn1cc(C)c(=O)[nH]c1=O | inactive
* CCCCN=C(OC1C=CCCC1)SC (stereo unspecified) | inactive
* CC(=O)c1sc2c(c1OC(=O)c1ccc(Cl)cc1Cl)c(=O)n(-c1ccccc1)c(=S)n2-c1ccccc1 | active
* O=C(NCCCCCCCCCCCCNC(=O)Nc1cccc2ccccc12)Nc1cccc2ccccc12 | inactive
* Clc1ccc2c(NCCNc3ccnc4cc(Cl)ccc34)ccnc2c1 | inactive
* Cc1c(CNc2ccc(C(=O)NC(CCCNC(=O)c3ccccc3C(=O)O)C(=O)O)cc2)cnc2nc(N)nc(N)c12 (stereo unspecified) | inactive
* O=C1NC(=O)C(CCC(=O)c2cccc3ccccc23)C(=O)N1 | inactive
* CC(=O)c1cc(I)c(O)c2ncccc12 | inactive
* COc1ccn(CC(=O)c2cc3ccccc3[nH]2)c(=O)n1 | inactive
* CC1CN=C(N(C(=O)Nc2ccc(Cl)c(Cl)c2)c2ccccc2)S1 (stereo unspecified) | inactive
* NCCCNC1(c2cc3ccccc3s2)CCCCC1 | inactive
